The values you see were collected from patent US8084621B2.

- System: Human Colon Cancer Cell Line (HT-29)
- METHOD_DESCRIPTION: Tumor cell proliferation assay (MTT), HT29
- Assay type: cell-based
- CONDITIONS: secondary screening, 48 hours
I'd appreciate it if you could supply pIC50 values for the items below.
Reminder that pIC50 means the negative base-10 logarithm of the concentration expressed in mol/L.

Data request: Consider the compound CCN(CC)CC(O)CNC(=O)c1c(C)[nH]c2c1CCC/C2=C1/C(=O)Nc2ccc(Cl)cc21 (centres unmarked) [I-65] and give its measured pIC50.
Data returned: 5.51

Data request: Now the compound CCN(CC)CC(O)CNC(=O)c1c(C)[nH]c2c1CCC/C2=C1/C(=O)Nc2ccccc21 (centres unmarked) [I-63]
Data returned: 5.99

Data request: Now the compound Cc1[nH]c2c(c1C(=O)NCC(O)CN1CCCC1)CCC/C2=C1/C(=O)Nc2ccccc21 (centres unmarked) [I-70]
Data returned: 6.03

Data request: Now the compound CCN(CC)CCNC(=O)c1c(C)[nH]c2c1CCC/C2=C1/C(=O)Nc2ccc(F)cc21 [I-2]
Data returned: 5.92

Data request: Now the compound Cc1[nH]c2c(c1C(=O)NCC(O)CN1CCOCC1)CCC/C2=C1/C(=O)Nc2ccccc21 (centres unmarked) [I-67]
Data returned: 5.16

Data request: Now the compound Cc1[nH]c2c(c1C(=O)NCC(O)CN1CCCC1)CCC/C2=C1/C(=O)Nc2ccc(Cl)cc21 (centres unmarked) [I-72]
Data returned: 5.36

Data request: Now the compound Cc1[nH]c2c(c1C(=O)NCC(O)CN(C)C)CCC/C2=C1/C(=O)Nc2ccc(F)cc21 (centres unmarked) [I-66]
Data returned: 5.54

Data request: Now the compound Cc1ccc2c(c1)/C(=C1\CCCc3c1[nH]c(C)c3C(=O)NCC(O)CN(C)C1CCCCC1)C(=O)N2 (centres unmarked) [I-79]
Data returned: 5.63
